Values from patent US7365069B2

- TARGET OF ASSAY: COX-2 (Homo sapiens, UniProt P35354)
- Construct: incubation of human blood with lipopolysaccharide (LPS), which induces COX-2 production in the blood; endogenous in cells; host or cells: fresh human whole blood from volunteers, treated with aspirin and then LPS
- Sequence (P35354 18-604): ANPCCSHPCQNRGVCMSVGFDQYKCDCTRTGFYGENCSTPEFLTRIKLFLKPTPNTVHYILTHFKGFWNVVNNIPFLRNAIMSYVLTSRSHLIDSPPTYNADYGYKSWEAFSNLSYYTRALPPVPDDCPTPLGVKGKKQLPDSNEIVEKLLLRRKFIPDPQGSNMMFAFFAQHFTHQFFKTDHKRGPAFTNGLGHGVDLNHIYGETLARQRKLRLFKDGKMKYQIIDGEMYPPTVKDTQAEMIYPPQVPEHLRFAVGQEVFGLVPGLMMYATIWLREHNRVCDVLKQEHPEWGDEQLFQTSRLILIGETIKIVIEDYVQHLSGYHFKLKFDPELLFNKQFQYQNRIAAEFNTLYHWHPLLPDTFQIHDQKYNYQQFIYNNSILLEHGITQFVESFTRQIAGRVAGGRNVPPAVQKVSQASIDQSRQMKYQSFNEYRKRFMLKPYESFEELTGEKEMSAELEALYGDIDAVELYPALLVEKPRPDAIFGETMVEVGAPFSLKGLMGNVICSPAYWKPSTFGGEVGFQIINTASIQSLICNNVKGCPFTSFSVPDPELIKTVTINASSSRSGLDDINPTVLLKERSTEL
- ASSAY REMARKS: Human whole blood assay, COX-2 inhibition (PGE2 ELISA after LPS)
- Type: cell-based
- ASSAY CONTEXT: 1 μM, LPS 24 h
Note to self: values exactly at 40% are T. So inhibition at 1 µM at or above 40% is T, below is F.

Does inhibition at 1 µM meet or surpass 40% for "CNc1nc(-c2ccc(SC)cc2)n(-c2ccc(C)c(C)c2)c(=O)c1C#N" ? F

Does inhibition at 1 µM meet or surpass 40% for "CSc1ccc(-n2c(-c3ccc(F)cc3)nc(SC)c(C#N)c2=O)cc1" ? T

Does inhibition at 1 µM meet or surpass 40% for "CSc1ccc(-n2c(-c3ccccn3)nc(SC)c(C#N)c2=O)cc1" ? F

Does inhibition at 1 µM meet or surpass 40% for "CSc1ccc(-c2nc(SC)c(C#N)c(=O)n2-c2ccc(C)cc2)cc1" ? T

Does inhibition at 1 µM meet or surpass 40% for "CCOC(=O)c1c(SC)nc(-c2ccc(F)cc2)n(-c2ccc(SC)cc2)c1=O" ? F
